Numbers sourced from PubChem BioAssay (Tox21).

Assay: qHTS assay for small molecule agonists of the p53 signaling pathway - cell viability (AID 651633); also: nearly all actives have a fitted effect of over 30% in size
Conditions: p53RE-bla HCT-116 viability, ATP luminescence, 16 h; series mostly up to 83.3 µM
Inconclusive results are not listed. The source made the active and inactive calls. Calls follow the shape of the full dose curve.
Reply using exactly one outcome from class 1 (active), class 0 (inactive)

Compound	Cat
C[C@]12CCC(=O)C=C1CC[C@@H]1[C@@H]2C(=O)C[C@@]2(C)[C@H]1CC[C@]2(O)C(=O)CO	class 0
c1ccc(Nc2ccccc2)cc1	class 0
Cn1cnc([N+](=O)[O-])c1Sc1ncnc2nc[nH]c12	class 1
CCOC(=O)C(C#N)=C(c1ccccc1)c1ccccc1	class 0
c1ccc2cc(Nc3ccc(Nc4ccc5ccccc5c4)cc3)ccc2c1	class 0
CCCCC(CC)COCC1CO1 (stereo not drawn)	class 0
C[C@]12CC[C@H]3[C@@H](CCC4=CC(=O)CC[C@@]43C)[C@@H]1CC[C@@H]2C(=O)CO	class 0
OC[C@H]1O[C@@H]2O[C@H]3[C@H](O)[C@@H](O)[C@@H](O[C@H]4[C@H](O)[C@@H](O)[C@@H](O[C@H]5[C@H](O)[C@@H](O)[C@@H](O[C@H]6[C@H](O)[C@@H](O)[C@@H](O[C@H]7[C@H](O)[C@@H](O)[C@@H](O[C@H]8[C@H](O)[C@@H](O)[C@@H](O[C@H]1[C@H](O)[C@H]2O)O[C@@H]8CO)O[C@@H]7CO)O[C@@H]6CO)O[C@@H]5CO)O[C@@H]4CO)O[C@@H]3CO	class 0
C=C(C)C(=O)OCCOC(=O)C(=C)C	class 0
O=C(Nc1ccc(Cl)cc1)Nc1ccc(Cl)c(Cl)c1	class 0

Hi, sorry to bother you, what did the test record for OC1CCCCCCCCCCC1 ?
class 0
